GI50, ACHN (kidney cancer): measured values
Quantity measured: GI50 (µg/mL)

> print(dat)
                                   compound        assayed.target  quantity.measured  test.value
1  CCCCCCCCCCCCCCCCCCS(=O)(=O)N1CC[N+](C)(Cc2ccccc2)CC1  ACHN (kidney cancer)               GI50        2.01

1: CCCCCCCCCCCCCC(=O)N1CC[N+](C)(CC)CC1
2: CCCCCCCCCCCCCCCCCC(=O)N1CC[N+](C)(CC)CC1
3: CCCCCCCCCCCC(=O)N1CC[N+](CC)(Cc2cccc(C)c2)CC1
4: C=CCCC[N+]1(CC)CCN(C(=O)CCCCCCCCCCCCCCC)CC1.[Br-]
5: CCCCCCCCCCCCCCCC(=O)N1CCC[N+](C)(CC)CC1 (centres unmarked)
Exam item: list the entries in increasing order of GI50. // format: requested-order list of labels
5, 4, 2, 1, 3
(5: 0.29 µg/mL, 4: 0.78 µg/mL, 2: 1.36 µg/mL, 1: 2.37 µg/mL, 3: 3.84 µg/mL)

a: CCCCCCCCCCCCS(=O)(=O)N1CC[N+](C)(Cc2cccc(C)c2)CC1
b: CCCCCCCCCCS(=O)(=O)N1CC[N+](CC)(Cc2ccccc2)CC1
c: CCCCCCCCCCCCCCCCCC(=O)N1CC[N+](CC)(Cc2cccc(C)c2)CC1
d: CCCCCCCCCCCCCCCCCC(=O)N1CC[N+](C)(Cc2ccccc2)CC1
Ranking field: GI50; order: falling. Please list each label once, in the requested order.
b, d, a, c

* * *

Tested on: ACHN (kidney cancer)
Quantity measured: GI50 (µg/mL)

> print(dat)
                                   compound  test.value
1  CCCCCCCCCCCCCCCCCCS(=O)(=O)N1CC[N+](CC)(Cc2ccc(C(C)(C)C)cc2)CC1        2.32

A: C=CC[N+]1(CC)CCN(C(=O)CCCCCCCCCCCCC)CC1
B: CCCCCCCCCCCC(=O)N1CCC[N+](C)(C)CC1
Compare A and B and name the one whose reported GI50 is smaller. Response format: the label of the selected entry.
B
(B: 1.07 µg/mL, A: 4.26 µg/mL)

* * *

The molecules below have reported GI50 for ACHN (kidney cancer).
Quantity measured: GI50 (µg/mL)

Consider the worked cases shown below.
> print(dat)
                                   molecule        assayed.target  quantity.measured  test.value
1  C=CC[N+]1(CC)CCN(C(=O)CCCCCCCCCCCCCCCCCCCCC)CC1 [Example 38]  ACHN (kidney cancer)               GI50        3.38
2  C=CC[N+]1(CC)CCN(C(=O)CCCCCCCCCCCCCCCCC)CC1 [Example 29]  ACHN (kidney cancer)               GI50        2.43
3  CCCCCCCCCCCCCCCC(=O)N1CC[N+](CC)(Cc2cccc([N+](=O)[O-])c2)CC1 [Example 47]  ACHN (kidney cancer)               GI50        5.13
4  CCCCCCCCCCCCCCCCCCS(=O)(=O)N1CC[N+](C)(Cc2ccc(F)cc2)CC1 [Example 96]  ACHN (kidney cancer)               GI50        3.25

P: CCCCCCCCCCCCCCCCCC(=O)N1CC[N+](CC)(Cc2cccc([N+](=O)[O-])c2)CC1 [Example 49]
Q: CCCCCCCCCCCCS(=O)(=O)N1CC[N+](C)(Cc2ccccc2)CC1 [Example 81]
Param metric = GI50; output whichever of P , Q has the minimum value. Reply briefly: the label of your chosen item.
Q

P: CCCCCCCCCCCCCCCCCCCCCC(=O)N1CC[N+](C)(C)CC1 [Example 1]
Q: CCCCCCCCCCCCS(=O)(=O)N1CC[N+](C)(CC)CC1 [Example 83]
R: CCCCCCCCCCCS(=O)(=O)N1CC[N+](C)(CC)CC1 [Example 93]
S: CCCCCCCCCCCCCCS(=O)(=O)N1CC[N+](C)(CC)CC1 [Example 95]
Order field: GI50 | Direction: descending (largest first) Reply: labels, ordered per the request.
P, R, Q, S

a: CCCCCCCCCCCCCCCC(=O)N1CC[N+](C)(CC)CC1.[I-] [Example 23]
b: C=CC[N+]1(C)CCN(S(=O)(=O)CCCCCCCCCC)CC1 [Example 77]
Hi team, can someone confirm which has the larger GI50: a or b ? Thanks. Answer = label.
b
(b: 3.47 µg/mL, a: 1.89 µg/mL)
